List of Ki tested on human V1a receptor (Homo sapiens, UniProt P37288).
Sequence (P37288 whole entry): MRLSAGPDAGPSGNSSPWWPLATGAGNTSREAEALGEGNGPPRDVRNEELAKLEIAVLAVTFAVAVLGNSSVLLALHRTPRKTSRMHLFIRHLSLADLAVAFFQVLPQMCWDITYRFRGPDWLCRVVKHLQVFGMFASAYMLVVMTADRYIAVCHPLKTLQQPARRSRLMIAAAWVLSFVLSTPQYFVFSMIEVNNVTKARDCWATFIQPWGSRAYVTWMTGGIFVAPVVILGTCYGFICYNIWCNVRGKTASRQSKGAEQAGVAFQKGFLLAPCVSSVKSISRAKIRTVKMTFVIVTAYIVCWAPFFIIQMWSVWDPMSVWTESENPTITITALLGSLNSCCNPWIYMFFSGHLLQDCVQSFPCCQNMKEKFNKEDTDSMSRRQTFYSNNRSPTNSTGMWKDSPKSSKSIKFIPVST
The answer is to be given in nM; state only the numeric part.

Lab note: CC(C)(C)OC(=O)Cn1cc(C(=O)N2CCC3(CC2)OC(=O)c2ccccc23)c2ccc(Cl)cc21 gave Ki of 1.1

Quick note, Ki for O=C1OC2(CCN(C(=O)c3cn(-c4ccccn4)c4cc(Cl)ccc34)CC2)c2ccccc21 landed at 7.6

Documented Ki of COc1ccccc1Cn1c(C)c(C(=O)N2CCC3(CC2)OCc2ccccc23)c2ccccc21 : 2.5

Just so you know, measured Ki for Cc1c(C(=O)N2CCC3(CC2)OC(=O)c2ccc(Cl)cc23)c2ccccc2n1Cc1ccccc1 came out at 12.7

The reported Ki of the molecule O=C(c1cn(Cc2cc(F)cc(F)c2)c2cc(Cl)ccc12)N1CCC2(CC1)CNc1ccccc12 was 13.8

# Ki (molecule: COc1ccc2c(c1)C(=O)OC21CCN(C(=O)c2c(C)n(Cc3ccccc3)c3ccccc23)CC1 ) is 9.5

Briefly, Ki measured for Cc1c(C(=O)N2C[C@@H](C)[C@]3(OC(=O)c4ccccc43)[C@@H](C)C2)c2ccccc2n1Cc1ccccc1 : 19.1

Where these numbers come from: patent US7332501B2
